Measurement protocol: Half life in Beagle dog at 2 mg/kg, iv administered as single dose by LC-MS/MS analysis
Type: ADME, organism-based, Canis lupus familiaris
Condition set: in vivo
Metric: half-life (h)

[
  {
    "Compound structure": "CCOC(=O)C1=C(CN2CCO[C@H](CCC(=O)O)C2)NC(c2nccs2)=N[C@H]1c1ccc(F)cc1Br",
    "Readout unit": "h",
    "Reported result": 5.71
  }
]

----------
Measurement protocol: AUC (0 to 24 hrs) in Sprague-Dawley rat at 2 mg/kg, iv administered as single dose by LC-MS/MS analysis
Type: ADME, organism-based
Parameters: dose 2 mg/kg, time < 24 hr, route intravenous
Condition set: in vivo
Rule: AUC(0-t) at 24 h under 1000 ng·h/mL gives FALSE, otherwise TRUE.

[
  {
    "Molecule": "CCOC(=O)C1=C(CN2CC(F)(F)C[C@@H]2CCC(=O)O)NC(c2nccs2)=N[C@H]1c1ccc(F)cc1Br",
    "Class": "FALSE"
  },
  {
    "Molecule": "CCOC(=O)C1=C(CN2CCOC[C@@H]2CCC(=O)O)NC(c2nccs2)=N[C@H]1c1ccc(F)cc1Br",
    "Class": "FALSE"
  },
  {
    "Molecule": "CCOC(=O)C1=C(CN2CCO[C@H](CCC(=O)O)C2)NC(c2nccs2)=N[C@H]1c1ccc(F)cc1Br",
    "Class": "TRUE"
  },
  {
    "Molecule": "CCOC(=O)C1=C(CN2CCOC[C@H]2C(=O)O)NC(c2nccs2)=N[C@H]1c1ccc(F)cc1Br",
    "Class": "FALSE"
  },
  {
    "Molecule": "CCOC(=O)C1=C(CN2CCOCC2)NC(c2nccs2)=NC1c1ccc(F)cc1Br (configuration not stated)",
    "Class": "FALSE"
  },
  {
    "Molecule": "CCOC(=O)C1=C(CN2CCO[C@H](C)[C@H]2C(=O)O)NC(c2nccs2)=N[C@H]1c1ccc(F)cc1Br",
    "Class": "TRUE"
  },
  {
    "Molecule": "CCOC(=O)C1=C(CN2CCO[C@@H](CCC(=O)O)C2)NC(c2nccs2)=N[C@H]1c1ccc(F)cc1Br",
    "Class": "FALSE"
  }
]

----------
The entries below are paired with their reported CLint scaled at 1 µM.
Measurement protocol: Intrinsic clearance in human liver microsomes at 1 uM preincubated for 10 mins followed by NADPH addition measured up to 60 mins by LC-MS/MS analysis
Type: ADME, microsome
Condition set: read-out: CLH
Metric: CLint scaled at 1 µM

[
  {
    "Compound structure": "CCOC(=O)C1=C(CN2CCOC[C@@H]2CCC(=O)O)NC(c2nccs2)=N[C@H]1c1ccc(F)cc1Br",
    "Metric": "CLint scaled at 1 µM",
    "Reported result": "23 mL/min/kg"
  },
  {
    "Compound structure": "CCOC(=O)C1=C(CN2CC(F)(F)C[C@@H]2CCC(=O)O)NC(c2nccs2)=N[C@H]1c1ccc(F)cc1Br",
    "Metric": "CLint scaled at 1 µM",
    "Reported result": "21 mL/min/kg"
  },
  {
    "Compound structure": "CCOC(=O)C1=C(CN2CCOC[C@H]2C(=O)O)NC(c2nccs2)=N[C@H]1c1ccc(F)cc1Br",
    "Metric": "CLint scaled at 1 µM",
    "Reported result": "7 mL/min/kg"
  },
  {
    "Compound structure": "CCOC(=O)C1=C(CN2CCO[C@@H](CCC(=O)O)C2)NC(c2nccs2)=N[C@H]1c1ccc(F)cc1Br",
    "Metric": "CLint scaled at 1 µM",
    "Reported result": "21 mL/min/kg"
  }
]
